- Tested on: DU-145
- run_description: NCI tumour cell line growth inhibition, 48 h
Activity calls are given as the source filed them. Cut-off read from the data, not from the text of the source: active = GI50 up to about 1.1 µM and inactive = higher.
Hello, when you answer, please use one of the following outcomes: label 1 (active), label 0 (inactive)

Some solved entries appear below for comparison.
compound=CCOC(=O)c1cn(C)nc1N/C(C)=C\C(=O)c1ccccc1 assigned_label="label 0"
compound=CC1(C)O[C@@H]2COC(=O)[C@@H]2O1 assigned_label="label 0"
compound=CN(CCCNC(=O)c1cn(C)c2c1ccc1cc(Cl)c(Cl)cc12)CCCNC(=O)c1cn(C)c2c1ccc1cc(Cl)c(Cl)cc12 assigned_label="label 0"
compound="CC1=CC(=O)[C@@H](O)[C@]2(C)[C@H]3[C@@]4(O)OC[C@@]35[C@@H](C[C@@H]12)OC(=O)C(OC(=O)CC1=CCCC1)[C@H]5[C@@H](C)[C@H]4O (stereo partly specified)" assigned_label="label 1"
compound=CCN(CC)CCOC(=O)Cc1cccc2c(=O)cc(-c3ccccc3)oc12 assigned_label="label 0"

Query :: Tell me the recorded outcome of this test for CN(C)CCCN1c2ccccc2Sc2ccc3ccccc3c21 .
Result :: label 0

Query :: Outcome logged for O=C(NC(=O)c1c(F)cccc1F)Nc1cccc(Oc2ncc(Cl)cn2)c1 in this assay:
Result :: label 0

Query :: Which outcome was assigned to COc1ccc(CC2Cc3ccccc3CC(=O)N2)cc1OC (stereo unspecified) in this test?
Result :: label 0

Query :: # outcome recorded in this test, key = CN1CCc2nc(N)nc(-c3nc(N)nc4c3CN(C)CC4)c2C1
Result :: label 0

Query :: Called result for COC(=O)[C@H]1[C@H](C(=O)OC)[C@@H](C)c2c(ccc3c2[nH]c2ccccc23)[C@@H]1C
Result :: label 0

Query :: Called result for CSc1nn(C)cc2nc(C)nc1-2
Result :: label 0

Query :: // return assay outcome for O=C(O)/C=C/c1ccc(Oc2ccccc2C(=O)O)o1
Result :: label 0

Query :: Call for entry COc1cc(C2C(Cl)C(=O)N2NC(=O)c2ccccc2O)cc(OC)c1OC (stereo unspecified) :
Result :: label 1

Query :: Could you please tell me the result logged for CC1(c2ccc(F)cc2)CC(c2ccc(F)cc2)=C(C#N)C(=C(C#N)C#N)N1 (stereo unspecified) in this assay?
Result :: label 0

Query :: Please share the test call associated with CC(=O)NC(CS)C(=O)O (stereo unspecified) .
Result :: label 0

Query :: Tell me the assay call for COc1ccc(CC2NCCc3cc(OC)c(OC)cc32)cc1Br (stereo unspecified) please.
Result :: label 0

Query :: Entry COc1cc(C(C)=O)cc(C(=O)N(C(C)C)C(C)C)c1[Si](C)(C)C : call = ?
Result :: label 0

Query :: Lab log entry: CC(=O)OCc1cc(=O)n2c([nH]c3ccccc32)c1C#N — outcome as called in the assay?
Result :: label 0

Query :: Lab log entry: CN(CCc1ccccn1)c1ccc2c(c1)C(=O)c1ccccc1-2 — outcome as called in the assay?
Result :: label 0

Query :: Check the results log: what was the call for CC(=O)/N=C1/N(/C=C2\C(=O)Oc3ccccc3C2=O)C(=O)/C(=C/c2cccc(Cl)c2Cl)N1C ?
Result :: label 0

Query :: Per the assay record, what outcome was assigned to Nc1nc(F)nc2c1ncn2C1OC(COP(=O)(O)O)C(O)C1O (stereo unspecified) ?
Result :: label 0

---

- System: SK-MEL-2
- run_description: NCI tumour cell line growth inhibition, 48 h
The source made the active and inactive calls. Cut-off read from the data, not from the text of the source: active = GI50 up to about 1.1 µM and inactive = higher.
The categories you may choose from are true (1) = active, false (0) = inactive

compound=O=C(Nc1ccc(N=C=S)cc1Cl)c1cc(Br)cc(Br)c1O assigned_label="false (0)"
compound="COc1ccc(C(OCC2OC(n3cc(C)c(=O)[nH]c3=O)CC2n2cc(Cn3cc(Br)c(=O)[nH]c3=O)nn2)(c2ccccc2)c2ccccc2)cc1 (configuration not stated)" assigned_label="false (0)"
compound="CC(=O)C1CCN(c2ccccc2)C1 (configuration not stated)" assigned_label="false (0)"
compound="CCOC(=O)C1(C)CCCc2sc(N)c(C#N)c21 (configuration not stated)" assigned_label="false (0)"
compound=Nc1c(S(=O)(=O)c2ccccc2)c2nc3ccccc3nc2n2c1nc1ccccc12 assigned_label="false (0)"

Query :: Please indicate how the test categorized N#CC1C(=O)SC2c3ccccc3C(=O)c3ccccc3C12 (configuration not stated) .
Result :: false (0)

Query :: Hi, sorry to bother you, what did the test record for O=C(C=P(c1ccccc1)(c1ccccc1)c1ccccc1)c1ccc(-c2cccs2)cc1 ?
Result :: false (0)

Query :: Short answer needed: outcome of this test for OC(c1ccc(F)cc1)(c1ccc(F)cc1)C1CC1 ?
Result :: false (0)

Query :: // param item: O=c1cnc2cc3ccccc3cc2[nH]1 ; yields the recorded call
Result :: false (0)

Query :: // outcome(item) with item = COC(=O)C(C(=O)C(=O)Nc1cccc(O)c1)c1nc2ccc(Cl)cc2nc1O (configuration not stated)
Result :: false (0)

Query :: Recorded call for COC(=O)C(=O)C(C(=O)C(=O)Nc1cccc(C(C)=O)c1)c1nc2ccccc2nc1O (configuration not stated) ?
Result :: false (0)

---

- Tested on: OVCAR-8
- run_description: NCI tumour cell line growth inhibition, 48 h
Calls of active or inactive are those of the source. Rule as the data show it: active = GI50 up to about 1.1 µM and inactive = higher.
Response enum: active, inactive

# count of solved cases: 6
molecule="COc1cc([C@@H]2c3cc4c(cc3[C@@H](NC(=O)c3cccc([N+](=O)[O-])c3)C3COC(=O)[C@@H]32)OCO4)cc(OC)c1O (stereo not given in full)" assigned_label=active
molecule="O=C1C2C(C(=O)N1c1ccccc1)C1(c3ccccc3)OC2(c2ccccc2)c2ccccc21 (stereo not given)" assigned_label=inactive
molecule=COc1ccc(-c2oc3cc(OC)c(OC)c(OC)c3c(=O)c2OC)cc1OC assigned_label=inactive
molecule=O=c1[nH]nc(-c2cccc([N+](=O)[O-])c2)[nH]1 assigned_label=inactive
molecule=N#C[C@@H](c1nc2ccccc2s1)c1ncccc1[N+](=O)[O-] assigned_label=inactive
molecule=CN(CCc1ccccn1)c1ccc2c(c1)Cc1ccccc1-2 assigned_label=inactive

Query :: Lab log entry: COCC1N=C(c2cc(OC)c(OC)c(OC)c2-c2cc3c(cc2[C@@H](C)O)OCO3)O[C@H]1c1ccccc1 (stereo not given in full) — outcome as called in the assay?
Result :: inactive

Query :: Dear colleague, could you share the recorded outcome for CC(=O)Oc1ccc2c(c1OC(C)=O)CCC1C2=CC[C@]2(C)C(=O)CCC12 (stereo not given in full) when you have a moment?
Result :: inactive

Query :: Which outcome did this test record for the molecule CC1CC/C(=C\c2ccc(N(C)C)cc2)C(=O)/C1=C/c1ccc(N(C)C)cc1 (stereo not given) ?
Result :: inactive

Query :: Hi, sorry to bother you, what did the test record for COc1cc(S(=O)(=O)Nc2ccc(-c3csc(N4C(=O)C(C)SC4c4cccc(Oc5ccccc5)c4)n3)cc2)ccc1Cl (stereo not given) ?
Result :: inactive

---

- System: BT-549
- run_description: NCI tumour cell line growth inhibition, 48 h
The source made the active and inactive calls. Cut-off read from the data, not from the text of the source: active = GI50 up to about 1.1 µM and inactive = higher.
measured_parameter: GI50

compound=CC(C)(C)COS(=O)OCC(C)(C)C measured_parameter=GI50 measured_result="> 100 µM (inactive)"

Could you now look at the following compound, please?
Query :: Any idea what GI50 was measured for CCOC(=O)CCCSCCCC(=O)CCCSCCCC(=O)OCC ?
Result :: > 100 µM (inactive)

---

- System: KM-20L2
- run_description: NCI tumour cell line growth inhibition, 48 h
Activity calls are given as the source filed them. Rule as the data show it: active = GI50 up to about 1.1 µM and inactive = higher.
Form entry, call: pick from true (active), false (inactive)

The examples below pair each entry with its known result.
molecule=O=C1CSc2cc([N+](=O)[O-])ccc2N1 assigned_label=false
molecule=O=[S@@]1Nc2ccc(Br)cc2S1 assigned_label=true
molecule="CC(c1ccccc1)N1CC(C)(c2ccccc2)N(O)C(c2ccccc2)C1C (centres undefined)" assigned_label=false
molecule="COc1ccc2cc3[n+](cc2c1OC)CCc1cc2c(cc1-3)OCO2 [BERBERINE CHLORIDE]" assigned_label=false
molecule=Cc1c(C(=O)CC(=O)C(=O)Nc2cc(Cl)ccc2Cl)[n+]([O-])c2ccccc2[n+]1[O-] assigned_label=false
molecule=O=C(O)/C(Cl)=C(/Cl)C(=O)Nc1cccc(Cl)c1 assigned_label=false
molecule="COc1ccc(CC2NCCc3cc(OC)c(OC)cc32)cc1Br (centres undefined)" assigned_label=false
molecule="O=C1C2C(C(=O)N1c1ccccc1)C1(c3ccccc3)OC2(c2ccccc2)c2ccccc21 (centres undefined)" assigned_label=false

Now look at this entry.
Query :: What was the test verdict on [N-]=[N+]=NC1C2CC3CC(C2)CC1C3 (centres undefined) ?
Result :: false

---

- Test system: NCI-H522
- run_description: NCI tumour cell line growth inhibition, 48 h
The source made the active and inactive calls. Rule as the data show it: active = GI50 up to about 1.1 µM and inactive = higher.
Choose one outcome from this list and give only that: yes (1) for active, no (0) for inactive

Query :: Record request — test call for O=C(Nc1ccc(S(=O)(=O)N[C@@H](C(=O)O)c2ccccc2)cc1)c1ccc(F)cc1
Result :: no (0)

Query :: Assay outcome for CC(C)C(=O)N1C(=O)O[C@@H](c2ccccc2)[C@H]1C : what was it?
Result :: no (0)

Query :: Hi, do you know how COc1cc2c(c(OC)c1OC)-c1ccc(SC)c(=O)cc1C(CO)C2 (stereo unspecified) came out in this test?
Result :: yes (1)

Query :: Look up the recorded call for Clc1ccc(CCN(CCc2ccc(Cl)c(Cl)c2)CCN2CCCC2)cc1Cl in this test.
Result :: no (0)
